Values compiled from ChEMBL document CHEMBL6087431.

Target of assay: Mitogen-activated protein kinase 8 (Homo sapiens, UniProt P45983)
Sequence (P45983 whole entry): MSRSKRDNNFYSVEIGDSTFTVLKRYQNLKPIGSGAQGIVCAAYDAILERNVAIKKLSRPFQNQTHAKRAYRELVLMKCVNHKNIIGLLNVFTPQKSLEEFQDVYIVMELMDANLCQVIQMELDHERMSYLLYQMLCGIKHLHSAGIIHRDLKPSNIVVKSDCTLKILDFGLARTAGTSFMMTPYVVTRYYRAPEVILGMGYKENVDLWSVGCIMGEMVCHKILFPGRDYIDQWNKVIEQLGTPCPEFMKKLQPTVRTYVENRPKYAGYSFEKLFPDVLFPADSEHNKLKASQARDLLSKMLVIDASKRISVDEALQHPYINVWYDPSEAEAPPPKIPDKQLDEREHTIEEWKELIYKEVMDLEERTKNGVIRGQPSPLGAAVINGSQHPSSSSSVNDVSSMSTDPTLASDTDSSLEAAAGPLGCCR
Settings: dose 2.0 nM
Active and inactive are the calls of the source. The calls are words filed in the database; no cut-off is given here.
Experimental readout: inhibition

>>> observed_value("NC(=O)c1ccccc1Nc1nc(Nc2ccc(C(=O)N3CCC4(CC3)OCCO4)cc2)ncc1Br")
"15%"
>>> observed_value("NC(=O)c1ccccc1Nc1nc(Nc2ccc(C(=O)N3CCC4(CCOC4)CC3)cc2)ncc1Br")
"60.4%"
>>> observed_value("NC(=O)c1ccccc1Nc1nc(Nc2ccc(C(=O)N3CC4CCC(C3)N4)cc2)ncc1Br")
"45.1%"
>>> observed_value("NC(=O)c1ccccc1Nc1nc(Nc2ccc(C(=O)N3CCC4(CCCCC4)CC3)cc2)ncc1Br")
"inactive"
>>> observed_value("CN1CC2CCC(C1)N2C(=O)c1ccc(Nc2ncc(Br)c(Nc3ccccc3C(N)=O)n2)cc1")
"56.6%"
>>> observed_value("NC(=O)c1ccccc1Nc1nc(Nc2ccc(C(=O)N3CCC4(CCCC4)CC3)cc2)ncc1Br")
"inactive"
>>> observed_value("NC(=O)c1ccccc1Nc1nc(Nc2ccc(C(=O)N3CC4CC3CO4)cc2)ncc1Br (centres undefined)")
"76.1%"
>>> observed_value("NC(=O)c1ccccc1Nc1nc(Nc2ccc(C(=O)N3C4CCC3COC4)cc2)ncc1Br")
"46.3%"
>>> observed_value("CN1C[C@H]2C[C@@H]1CN2C(=O)c1ccc(Nc2ncc(Br)c(Nc3ccccc3C(N)=O)n2)cc1")
"49.3%"

###

Target of assay: Mitogen-activated protein kinase 8 (Homo sapiens)
Settings: dose 2.0 nM
Experimental readout: inhibition (%)

>>> observed_value("NC(=O)c1ccccc1Nc1nc(Nc2ccc(C(=O)N3CCC4(CCOCC4)CC3)cc2)ncc1Br")
46.8
>>> observed_value("NC(=O)c1ccccc1Nc1nc(Nc2ccccc2)ncc1Br")
18.1
>>> observed_value("NC(=O)c1ccccc1Nc1nc(Nc2ccc(C(=O)N3CC4CC(C3)O4)cc2)ncc1Br")
10.8
>>> observed_value("NC(=O)c1ccccc1Nc1nc(Nc2ccc(C(=O)N3CCC4(CCNCC4)CC3)cc2)ncc1Br")
33.2
>>> observed_value("NC(=O)c1ccccc1Nc1nc(Nc2ccc(C(=O)N3CCC4(CCNC4)CC3)cc2)ncc1Br")
49.9
>>> observed_value("NC(=O)c1ccccc1Nc1nc(Nc2ccc(C(=O)N3CCC4(CCCO4)CC3)cc2)ncc1Br")
47.6
>>> observed_value("NC(=O)c1ccccc1Nc1nc(Nc2ccc(C(=O)N3C4CCC3CNC4)cc2)ncc1Br")
34.4
>>> observed_value("NC(=O)c1ccccc1Nc1nc(Nc2ccc(C(=O)N3C[C@H]4C[C@@H]3CN4)cc2)ncc1Br")
51.3

###

Target of assay: Mitogen-activated protein kinase 8 (Homo sapiens)
Procedure text: Inhibition of JNK1 (unknown origin)
Experimental readout: IC50 (nM)

>>> observed_value("CN1CC2CCC(C1)N2C(=O)c1ccc(Nc2ncc(Br)c(Nc3ccccc3C(N)=O)n2)cc1")
1.5
>>> observed_value("NC(=O)c1ccccc1Nc1nc(Nc2ccc(C(=O)N3CC4CC3CO4)cc2)ncc1Br (centres undefined)")
0.8
>>> observed_value("NC(=O)c1ccccc1Nc1nc(Nc2ccc(C(=O)N3CCC4(CCOC4)CC3)cc2)ncc1Br")
1.4
>>> observed_value("NC(=O)c1ccccc1Nc1nc(Nc2ccccc2)ncc1Br")
3
